Please respond with reported IC50 for every item in the list.
Test system: H9c2 cardiomyocytes, 2-deoxyglucose stress, ATP luminescence, 2 h
ASSAY_NOTES: H9c2 cell survival under 2-deoxyglucose stress – uHTS hits, dose response (AID 588780)
Calls of active or inactive are those of the source.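 Rule for the calls: active = compounds whose fitted half-maximal concentration in the cell-protection dose series is at or below a set limit; inactive = the rest.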

Form: item COc1ccc(OCC(O)Cn2c(Br)nc3c2c(=O)[nH]c(=O)n3C)cc1 (centres undefined) ; test system H9c2 cardiomyocytes, 2-deoxyglucose stress, ATP luminescence, 2 h; IC50: 38.7 µM (inactive)

Form: item O=C1[C@H]2[C@@H](c3ccc(C(F)(F)F)cc3)N[C@]3(CCCN(Cc4ccc(F)cc4)C3=O)[C@H]2C(=O)N1Cc1ccccc1 ; test system H9c2 cardiomyocytes, 2-deoxyglucose stress, ATP luminescence, 2 h; IC50: > 79 µM (inactive)

Form: item O=C(COc1ccc(F)cc1Cl)Nc1nc(-c2ccccn2)cs1 ; test system H9c2 cardiomyocytes, 2-deoxyglucose stress, ATP luminescence, 2 h; IC50: > 79 µM (inactive)

Form: item O=C(CN1CCN(c2ccccc2F)CC1)c1ccc(O)c(O)c1 ; test system H9c2 cardiomyocytes, 2-deoxyglucose stress, ATP luminescence, 2 h; IC50: > 79 µM (inactive)

Form: item Brc1ccc(CSc2ccc3nnc(-c4cccnc4)n3n2)cc1 ; test system H9c2 cardiomyocytes, 2-deoxyglucose stress, ATP luminescence, 2 h; IC50: > 79 µM (inactive)

Form: item COc1ccc(-c2csc(/C(C#N)=C(\O)CSc3nccn3C)n2)cc1OC ; test system H9c2 cardiomyocytes, 2-deoxyglucose stress, ATP luminescence, 2 h; IC50: > 79 µM (inactive)

Form: item CC(C)(C)C(=O)Nc1ccc(C(=O)N/N=C/c2ccccc2OC(=O)c2ccccc2)cc1 ; test system H9c2 cardiomyocytes, 2-deoxyglucose stress, ATP luminescence, 2 h; IC50: > 79 µM (inactive)

Form: item CCC(C)N(C(=O)COC(=O)Cc1n[nH]c(=O)c2ccccc12)C1CCS(=O)(=O)C1 (centres undefined) ; test system H9c2 cardiomyocytes, 2-deoxyglucose stress, ATP luminescence, 2 h; IC50: > 79 µM (inactive)

Form: item O=c1c(O)c(-c2ccccc2)oc2cc(O)ccc12 ; test system H9c2 cardiomyocytes, 2-deoxyglucose stress, ATP luminescence, 2 h; IC50: > 79 µM (inactive)

Form: item O=C(N/N=C/c1cccc(O)c1)c1cc(-c2ccc3c(c2)OCO3)n[nH]1 ; test system H9c2 cardiomyocytes, 2-deoxyglucose stress, ATP luminescence, 2 h; IC50: > 79 µM (inactive)

Form: item C[C@@H]1CN([C@@H](C)CO)C(=O)c2cc(NC(=O)Nc3ccccc3)ccc2O[C@H]1CN(C)C(=O)Nc1cccc2ccccc12 ; test system H9c2 cardiomyocytes, 2-deoxyglucose stress, ATP luminescence, 2 h; IC50: 15.8 µM

Form: item CC(=C/c1ccc(C(C)C)cc1)/C=N/NC(=O)c1ccncc1 ; test system H9c2 cardiomyocytes, 2-deoxyglucose stress, ATP luminescence, 2 h; IC50: > 79 µM (inactive)

Form: item Cc1cccc(C(=O)NC(C(=O)Nc2nc(-c3ccccn3)cs2)C(C)C)c1 (centres undefined) ; test system H9c2 cardiomyocytes, 2-deoxyglucose stress, ATP luminescence, 2 h; IC50: 12.7 µM

Form: item CC(=O)c1cccc(-c2cnc3c(NC=O)cc(-c4cccc(C(=O)N(C)C)c4)cn23)c1 ; test system H9c2 cardiomyocytes, 2-deoxyglucose stress, ATP luminescence, 2 h; IC50: 19.5 µM

Form: item CC(C)CC(C(=O)NC1CCCCC1)N(Cc1cccs1)C(=O)c1snc(C(N)=O)c1N (centres undefined) ; test system H9c2 cardiomyocytes, 2-deoxyglucose stress, ATP luminescence, 2 h; IC50: 30.1 µM (inactive)

Form: item Cc1nc(SCC(=O)N2CCN(c3ccccc3)CC2)c2oc3ccccc3c2n1 ; test system H9c2 cardiomyocytes, 2-deoxyglucose stress, ATP luminescence, 2 h; IC50: 13.8 µM

Form: item Cc1cc(C)c(C)c(S(=O)(=O)N2CCC(C(=O)NNC(=O)c3ccccc3O)CC2)c1C ; test system H9c2 cardiomyocytes, 2-deoxyglucose stress, ATP luminescence, 2 h; IC50: > 79 µM (inactive)

Form: item COc1ccc(CC(=O)NCC(=O)N/N=C/c2cc(Br)ccc2OC)cc1 ; test system H9c2 cardiomyocytes, 2-deoxyglucose stress, ATP luminescence, 2 h; IC50: > 79 µM (inactive)

Form: item O=C(Nc1nnc(-c2ccc3c(c2)CCCC3)o1)c1ccccc1 ; test system H9c2 cardiomyocytes, 2-deoxyglucose stress, ATP luminescence, 2 h; IC50: 23.3 µM

Form: item Cc1cc(C)cc(C(=O)Nc2ccc(NC(=O)c3cccs3)cc2)c1 ; test system H9c2 cardiomyocytes, 2-deoxyglucose stress, ATP luminescence, 2 h; IC50: > 79 µM (inactive)

Form: item CC(=O)c1ccc(C(=O)Nc2nnc(-c3ccc(Cl)cc3)o2)cc1 ; test system H9c2 cardiomyocytes, 2-deoxyglucose stress, ATP luminescence, 2 h; IC50: 15.7 µM

Form: item COc1cc(NS(=O)(=O)c2ccc3ccccc3c2)c2ncccc2c1 ; test system H9c2 cardiomyocytes, 2-deoxyglucose stress, ATP luminescence, 2 h; IC50: 18.2 µM

Form: item N#C/C(=C\c1ccc(-c2cccc([N+](=O)[O-])c2)o1)C(=O)NCCN1CCOCC1 ; test system H9c2 cardiomyocytes, 2-deoxyglucose stress, ATP luminescence, 2 h; IC50: > 79 µM (inactive)

Form: item O=C(/C=C\c1cn(-c2ccccc2)nc1-c1ccc2c(c1)OCCO2)N1CCOCC1 ; test system H9c2 cardiomyocytes, 2-deoxyglucose stress, ATP luminescence, 2 h; IC50: > 79 µM (inactive)

Form: item Cc1c(C=O)c2ccccn2c1C(=O)c1ccc(Cl)c([N+](=O)[O-])c1 ; test system H9c2 cardiomyocytes, 2-deoxyglucose stress, ATP luminescence, 2 h; IC50: > 79 µM (inactive)

Form: item O=C(NC1CCCCC1)C(c1ccc2ncccc2c1)N(Cc1cccs1)C(=O)c1cccs1 (centres undefined) ; test system H9c2 cardiomyocytes, 2-deoxyglucose stress, ATP luminescence, 2 h; IC50: 22 µM

Form: item CC(C)(C)OC(=O)N1CCC[C@H]1c1nnc(SCC(=O)Nc2ccc(Br)cc2)o1 ; test system H9c2 cardiomyocytes, 2-deoxyglucose stress, ATP luminescence, 2 h; IC50: 17.7 µM

Form: item CC1(C)CC2CC(C)(CN2C(=O)COC(=O)c2n[nH]c(=O)c3ccccc23)C1 (centres undefined) ; test system H9c2 cardiomyocytes, 2-deoxyglucose stress, ATP luminescence, 2 h; IC50: > 79 µM (inactive)

Form: item CCOc1ccc(C(C(=O)NCC2CCCO2)N(C(=O)c2snc(C(N)=O)c2N)c2ccccc2F)cc1 (centres undefined) ; test system H9c2 cardiomyocytes, 2-deoxyglucose stress, ATP luminescence, 2 h; IC50: 20.6 µM

Origin of measurements: PubChem BioAssay AID588780
